- Measurement target: FPRL1 (Homo sapiens)
- Construct: expressed in transfected cells; host or cells: CHO-Gal6 (CHO cells with G alpha 16)
- Sequence (P25090 1-351): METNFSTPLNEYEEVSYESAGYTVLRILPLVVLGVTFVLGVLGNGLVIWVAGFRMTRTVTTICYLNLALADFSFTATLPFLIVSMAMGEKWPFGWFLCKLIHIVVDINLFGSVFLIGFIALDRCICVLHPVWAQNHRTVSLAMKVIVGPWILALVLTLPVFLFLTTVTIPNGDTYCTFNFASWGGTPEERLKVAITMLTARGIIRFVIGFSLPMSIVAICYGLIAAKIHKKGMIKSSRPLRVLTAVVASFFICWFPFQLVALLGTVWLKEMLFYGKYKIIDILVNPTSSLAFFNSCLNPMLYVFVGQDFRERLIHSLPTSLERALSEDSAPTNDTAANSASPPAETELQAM
- Assay comment: compound-induced calcium activity on FLIPR Tetra in CHO-Gal6 cells stably expressing FPRL1
- Format: cell-based
- Recorded conditions: relative efficacy, calcium, FLIPR Tetra

- Compound: "N#Cc1ccc(-c2ccc(NC(=O)C3C(C(=O)O)C4C=CC3C43CC3)cc2)cc1 (racemic)"
  FPRL1 (rel. eff.): 0.97
- Compound: "O=C(O)[C@@H]1[C@H](C(=O)Nc2ccc(I)cc2)[C@@H]2CC[C@H]1C21CC1 (racemic)"
  FPRL1 (rel. eff.): 0.80
- Compound: "O=C(O)C1C(C(=O)Nc2ccc(OC(F)(F)F)cc2)C2C=CC1C21CC1 (racemic)"
  FPRL1 (rel. eff.): 0.96
- Compound: "O=C(O)[C@@H]1[C@H](C(=O)Nc2ccc(Cl)cc2)[C@@H]2CC[C@H]1C21CC1 (racemic)"
  FPRL1 (rel. eff.): 0.86

====

- Measurement target: FPRL1 (Homo sapiens, UniProt P25090)
- Construct: expressed in transfected cells; host or cells: CHO-Gal6 (CHO cells with G alpha 16)
- Assay comment: compound-induced calcium activity on FLIPR Tetra in CHO-Gal6 cells stably expressing FPRL1
- Type: cell-based
- Recorded conditions: calcium, FLIPR Tetra, tested 0.61 to 10,000 nM, read-out: FPRL1 EC50
- Method: CHO-Gal6 cells stably expressing FPRL1 were cultured in (F12, 10% FBS, 1% PSA, 400 μg/ml geneticin and 50 μg/ml hygromycin) and HEK-Gqi5 cells stable expressing FPR1 were cultured in (DMEM high glucose, 10% FBS, 1% PSA, 400 μg/ml geneticin and 50 μg/ml hygromycin). In general, the day before the experiment, 18,000 cells/well were plated in a 384-well clear bottom poly-d-lysine coated plate. […] Results are expressed as EC50 (nM) and efficacy values.
Measured EC50 values are reported for all entries that follow.

- Compound: "O=C1[C@@H]2[C@H](C(=O)N1c1ccc(Br)cc1)[C@@H]1CC[C@H]2C12CC2 [Compound 90]"
  Units symbol: "µM"
  Inequality symbol: "="
  EC50: 6.56
- Compound: "CCc1ccc(NC(=O)C2C(C(=O)O)C3C=CC2C32CC2)cc1 (racemic) [Compound 36]"
  Units symbol: "µM"
  Inequality symbol: "="
  EC50: 0.059
- Compound: "CCOC(=O)C1C(C(=O)Nc2ccc(I)cc2)C2C=CC1C21CC1 (racemic) [Compound 17]"
  Units symbol: "µM"
  Inequality symbol: "="
  EC50: 0.243
- Compound: "CSc1ccc(NC(=O)C2C(C(N)=O)C3C=CC2C32CC2)cc1 (racemic) [Compound 63]"
  Units symbol: "µM"
  Inequality symbol: "="
  EC50: 0.0966
- Compound: "O=C(O)C1C(C(=O)Nc2cccc(C(F)(F)F)c2)C2CCC1C21CC1 (racemic) [Compound 37]"
  Units symbol: "µM"
  Inequality symbol: "="
  EC50: 0.978
- Compound: "CCc1ccc(NC(=O)[C@H]2[C@@H](C(N)=O)[C@H]3CC[C@@H]2C3(C)C)cc1 (racemic) [Compound 65]"
  Units symbol: "µM"
  Inequality symbol: "="
  EC50: 0.035
- Compound: "N#Cc1ccc(-c2ccc(NC(=O)C3C(C(=O)O)C4C=CC3C43CC3)cc2)cc1 (racemic) [Compound 30]"
  Units symbol: "µM"
  Inequality symbol: "="
  EC50: 2.88
- Compound: "CN(C)C(=O)C1C(C(=O)Nc2ccc(Br)cc2)C2C=CC1C21CC1 (racemic) [Compound 76]"
  Units symbol: "µM"
  Inequality symbol: "="
  EC50: 3.72
- Compound: "O=C(Nc1ccccc1)[C@H]1[C@@H](C=NO)[C@H]2CC[C@@H]1C21CC1 (racemic) [Compound 94]"
  Units symbol: "µM"
  Inequality symbol: "="
  EC50: 2.83
- Compound: "CCc1ccc(NC(=O)[C@H]2[C@@H](C(=O)O)[C@H]3CC[C@@H]2C32CC2)cc1 (racemic) [Compound 40]"
  Units symbol: "µM"
  Inequality symbol: "="
  EC50: 0.016
- Compound: "CC(C)NC(=O)[C@@H]1[C@H](C(=O)Nc2ccc(Br)cc2)[C@@H]2CC[C@H]1C21CC1 (racemic) [Compound 79]"
  Units symbol: "µM"
  Inequality symbol: "="
  EC50: 0.0066
- Compound: "CCc1ccc(NC(=O)C2C(C(N)=O)C3C=CC2C32CC2)cc1 (racemic) [Compound 66]"
  Units symbol: "µM"
  Inequality symbol: "="
  EC50: 0.0508
- Compound: "CC(=O)c1ccc(NC(=O)[C@H]2[C@@H](C(=O)O)[C@H]3CC[C@@H]2C32CC2)cc1 (racemic) [Compound 43]"
  Units symbol: "µM"
  Inequality symbol: "="
  EC50: 0.049
- Compound: "CC(C)=C1C2CCC1C(C(=O)Nc1ccc(Br)cc1)C2C(=O)O (racemic) [Compound 24]"
  Units symbol: "µM"
  Inequality symbol: "="
  EC50: 0.164
- Compound: "O=C(O)C1C(C(=O)Nc2cccc(C(F)(F)F)c2)C2C=CC1C21CC1 (racemic) [Compound 27]"
  Units symbol: "µM"
  Inequality symbol: "="
  EC50: 2.77
- Compound: "COC(=O)C1C(C(=O)Nc2ccc(Br)cc2)C2CCC1C21CC1 (racemic) [Compound 83]"
  Units symbol: "µM"
  Inequality symbol: "="
  EC50: 1.68
- Compound: "CC(C)=C1[C@H]2C=C[C@@H]1[C@@H](C(=O)O)[C@H]2C(=O)Nc1ccc(Br)cc1 (racemic) [Compound 21]"
  Units symbol: "µM"
  Inequality symbol: "="
  EC50: 0.461
- Compound: "O=C(O)C1C(C(=O)Nc2ccc(Br)cc2)C2CCC1C21CC1 (racemic) [Compound 10A]"
  Units symbol: "µM"
  Inequality symbol: "="
  EC50: 0.278
- Compound: "CSc1ccc(NC(=O)[C@H]2[C@@H](C(N)=O)[C@H]3CC[C@@H]2C32CC2)cc1 (racemic) [Compound 53]"
  Units symbol: "µM"
  Inequality symbol: "="
  EC50: 0.015
- Compound: "O=C(O)C1C(C(=O)Nc2ccc(Cl)c(Cl)c2)C2C=CC1C21CC1 (racemic) [Compound 28]"
  Units symbol: "µM"
  Inequality symbol: "="
  EC50: 0.616
- Compound: "CCc1ccc(NC(=O)[C@H]2[C@@H](C(N)=O)[C@H]3CC[C@@H]2C32CC2)cc1 (racemic) [Compound 52]"
  Units symbol: "µM"
  Inequality symbol: "="
  EC50: 0.033
- Compound: "CSc1ccc(NC(=O)C2C(C(=O)O)C3C=CC2C32CC2)cc1 (racemic) [Compound 35]"
  Units symbol: "µM"
  Inequality symbol: "="
  EC50: 0.014
- Compound: "CC(C)OC(=O)C1C(C(=O)Nc2ccc(I)cc2)C2C=CC1C21CC1 (racemic) [Compound 18]"
  Units symbol: "µM"
  Inequality symbol: "="
  EC50: 0.187
- Compound: "C[S+]([O-])c1ccc(NC(=O)C2C(C(=O)O)C3CCC2C32CC2)cc1 (racemic) [Compound 44]"
  Units symbol: "µM"
  Inequality symbol: "="
  EC50: 0.475
- Compound: "CC1(C)[C@@H]2CC[C@H]1[C@@H](C(=O)Nc1ccc(Cl)cc1)[C@H]2C(=O)O (racemic) [Compound 14]"
  Units symbol: "µM"
  Inequality symbol: "="
  EC50: 0.036
- Compound: "N#C[C@@H]1[C@H](C(=O)Nc2ccc(Br)cc2)[C@@H]2CC[C@H]1C21CC1 (racemic) [Compound 89]"
  Units symbol: "µM"
  Inequality symbol: "="
  EC50: 1.09
- Compound: "O=C(O)[C@@H]1[C@H](C(=O)Nc2ccc(Cl)cc2)[C@@H]2CC[C@H]1C21CC1 (racemic) [Compound 11]"
  Units symbol: "µM"
  Inequality symbol: "="
  EC50: 0.043
- Compound: "Cc1cc(Br)cc(C)c1NC(=O)[C@@H]1[C@H](C(=O)O)[C@@H]2CC[C@H]1C21CC1 (racemic) [Compound 73]"
  Units symbol: "µM"
  Inequality symbol: "="
  EC50: 2.12
- Compound: "NC(=O)C1C(C(=O)Nc2ccc(Br)cc2)C2CCC1C21CC1 (racemic) [Compound 46B]"
  Units symbol: "µM"
  Inequality symbol: "<"
  EC50: 0.001
- Compound: "C[S+]([O-])c1ccc(NC(=O)C2C(C(=O)O)C3CCC2C32CC2)cc1 (racemic) [Compound 70]"
  Units symbol: "µM"
  Inequality symbol: "="
  EC50: 0.475

The origin of these recorded values is patent US8618163B2.
